Biological target: T1, H. sapiens NCOA1 N-CID-C (H_sapiens_NCOA1_N-CID-C_885-1004) (H. sapiens, UniProt Q15788 885-1004)
T1 construct: Gly-Ser remains at the N-terminus after thrombin cleavage; also called CID with flanking regions; Src1; not shown: His6, N-terminal, cleaved; lipo domain, N-terminal, cleaved
T1 sequence: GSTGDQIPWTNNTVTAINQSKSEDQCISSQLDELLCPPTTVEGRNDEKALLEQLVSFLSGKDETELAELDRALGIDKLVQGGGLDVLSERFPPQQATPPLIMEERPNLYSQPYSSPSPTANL
Assay: stopped-flow spectroscopy; Trp variant of NCBD of the same species mixed with CID or N-CID-C; kon from the slope of kobs against CID concentration; koff from displacement of the complex by an excess of wild-type NCBD (average of three experiments); Kd = koff/kon; 20 mM sodium phosphate pH 7.40, 150 mM NaCl, 4 °C; double exponential fit for human and C. milii NCOA3, the high kobs used for Kd
Conditions: both partners purified
observedProperty: pKd
As a rule, pKd stands for the negative log10 of the concentration, concentration in M.

For H. sapiens CBP NCBD domain, Trp variant (H_sapiens_NCBD 2058-2116, Tyr2108 to Trp) (domain or fragment, Gly-Ser remains at the N-terminus after thrombin cleavage; Trp introduced at Tyr2108 for the kinetic studies; not shown: His6, N-terminal, cleaved; lipo domain, N-terminal, cleaved) GSPPRSISPSALQDLLRTLKSPSSPQQQQQVLNILKSNPQLMAAFIKQRTAKWVANQPGMQ the binder record lists pKd as 8.22
